# Tested on: human epithelial melanoma A375 cells
# Method Summary: Cell survival index (MTT + cell count) bioscreen, A375
# Format: cell-based
# Experimental Setup: A-375; human melanoma cell line, 48 h of incubation, cell survival index, mean ± SEM (n = 30)
Labelling field: enter satisfied if recorded IC50 is less than 20 µM. Enter not satisfied if it equals or exceeds that cut-off.

Cc1ccc(Cn2c(C(=O)NCc3cccc(Cl)c3)cc(C(O)c3ccccc3)c2C)cc1 (racemic) [(±)10b] = satisfied

(Q) Regarding Cc1c(C(=O)c2ccccc2)cc(C(=O)NCc2cccc(Cl)c2)n1Cc1ccc(F)cc1 , kindly confirm whether its IC50 is beneath 20 µM.
(A) satisfied

====

# System: human epithelial melanoma A375 cells
# Method Summary: Cell survival index (MTT + cell count) bioscreen, A375
# Format: cell-based
# Experimental Setup: A-375; human melanoma cell line, 48 h of incubation, cell survival index, mean ± SEM (n = 30)
IC50 listing for selected compounds.
Response body: numeric value in µM, unit text excluded.

// solved cases for IC50 follow
Cc1c(C(=O)c2ccccc2)cc(C(=O)NCc2cccc(C(F)(F)F)c2)n1Cc1ccccc1 = 27
Cc1c(C(=O)c2ccccc2)cc(C(=O)NCc2ccc(Cl)cc2)n1Cc1ccc(Cl)cc1 = 23
COc1ccc(C2=N[C@H](c3ccc(Cl)cc3)[C@H](c3ccc(Cl)cc3)N2C(=O)N2CCNC(=O)C2)c(OC(C)C)c1 [nutlin-3a, reference compound] = 15

(Q) Would you mind telling me what IC50 value was observed for Cc1ccc(Cn2c(C(=O)NCc3cccc(Cl)c3)cc(C(=O)c3ccc(C)cc3)c2C)cc1 ?
(A) 24

(Q) Would you mind telling me what IC50 value was observed for Cc1c(C(=O)c2ccccc2)cc(C(=O)NCc2cccc(Cl)c2)n1Cc1ccc(Cl)cc1 ?
(A) 18

(Q) Would you mind telling me what IC50 value was observed for CC(=O)c1cc(C(=O)NCc2cccc(Br)c2)n(Cc2ccc(C)cc2)c1-c1ccccc1 ?
(A) 18

(Q) Would you mind telling me what IC50 value was observed for Cc1ccc(Cn2c(C(=O)NCc3ccc(Cl)cc3)cc(C(=O)c3ccccc3)c2C)cc1 ?
(A) 15

====

# Tested on: human colorectal carcinoma HCT-116 cells
# Method Summary: Cell survival index (MTT + cell count) bioscreen, HCT-116
# Assay type: cell-based
# Experimental Setup: HCT-116, 48 h, human colon cancer cell line, 48 h of incubation, mean ± SEM (n = 30)
IC50 listing for selected compounds.
Response body: numeric value in µM, unit text excluded.

// solved cases for IC50 follow
Cc1c(C(=O)c2ccccc2)cc(C(=O)NCc2cccc(Cl)c2)n1Cc1ccc(N)cc1 [compound 10a] = 41.3
Cc1c(C(=O)c2ccccc2)cc(C(=O)NCc2cccc(Cl)c2)n1Cc1ccc(Cl)cc1 = 36.4
Cc1ccc(Cn2c(C(=O)NCc3cccc(Cl)c3)cc(C(O)c3ccccc3)c2C)cc1 (racemic) [(±)10b] = 25

Now look at this entry.
(Q) Would you mind telling me what IC50 value was observed for Cc1ccc(Cn2c(C(=O)NCc3ccc(Cl)cc3)cc(C(=O)c3ccccc3)c2C)cc1 ?
(A) 35.4

====

# System: human epithelial melanoma A375 cells
# Method Summary: Cell survival index (MTT + cell count) bioscreen, A375
# Type: cell-based
# Experimental Setup: SI = IC50 L6/IC50 A375
SI (selectivity index) listing for selected compounds.
Keep it simple and answer with nothing but the number.

// solved cases for SI (selectivity index) follow
Cc1c(C(=O)c2ccccc2)cc(C(=O)NCc2cccc(C(F)(F)F)c2)n1Cc1ccccc1 [compound 9f] = 1.3
CC(=O)c1cc(C(=O)NCc2cccc(Br)c2)n(Cc2ccc(C)cc2)c1-c1ccccc1 [compound 9g] = 3.9
Cc1ccc(Cn2c(C(=O)NCc3cccc(Cl)c3)cc(C(=O)c3ccccc3)c2C)cc1 [compound 1] = 2.1

(Q) Would you mind telling me what SI (selectivity index) value was observed for Cc1ccc(Cn2c(C(=O)NCc3cccc(Cl)c3)cc(C(=O)c3ccc(C)cc3)c2C)cc1 [compound 9h] ?
(A) 1.7

====

# Method Summary: Solubility assay in PBS by UV light scattering (precipitation point)
# Format: physicochemical
# Experimental Setup: PBS (phosphate-buffered saline), aqueous buffer, kinetic from dmso stock; PBS solution pH = 7.4, 37 °C, mean ± SEM (n = 3)
# Procedure: The solubility of all compounds was evaluated in a PBS solution (phosphate-buffered saline; Sigma-Aldrich, Merck KGaA, Darmstadt, Germany, pH = 7.4) by means of UV spectroscopy. For each compound, the precipitation point was quantified measuring the increasing of the UV absorption of PBS in the range of 600–800 nm after successive additions of aliquots of a DMSO solution at specific concentration. […]
Quantity: solubility at 1 min

CC(=O)c1cc(C(=O)NCc2cccc(Br)c2)n(Cc2ccc(C)cc2)c1-c1ccccc1 [compound 9g] = 1.5 µM
Cc1c(C(=O)c2ccccc2)cc(C(=O)NCc2cccc(Cl)c2)n1Cc1ccc(F)cc1 [compound 9c] = 3.9 µM
Cc1c(C(=O)c2ccccc2)cc(C(=O)NCc2cccc(C(F)(F)F)c2)n1Cc1ccccc1 [compound 9f] = 2.6 µM
COc1ccc(C(=O)c2cc(C(=O)NCc3cccc(Cl)c3)n(Cc3ccc(C)cc3)c2C)cc1 [compound 9i] = < 1 µM
COc1ccc(Cn2c(C(=O)NCc3cccc(Cl)c3)cc(C(=O)c3ccccc3)c2C)cc1 [compound 9b] = 3.1 µM
Cc1ccc(Cn2c(C(=O)NCc3cccc(Cl)c3)cc(C(=O)c3ccccc3)c2C)cc1 [compound 1] = 3.5 µM
Cc1c(C(=O)c2ccccc2)cc(C(=O)NCc2cccc(Cl)c2)n1Cc1ccc(Cl)cc1 [compound 9a] = 3.9 µM
Cc1ccc(Cn2c(C(=O)NCc3cccc(Cl)c3)cc(C(O)c3ccccc3)c2C)cc1 (racemic) [(±)10b] = 6.7 µM

Now look at this entry.
(Q) Would you mind telling me what solubility at 1 min value was observed for Cc1c(C(=O)c2ccccc2)cc(C(=O)NCc2cccc(Cl)c2)n1Cc1ccc(N)cc1 [compound 10a] ?
(A) 10.5 µM

====

SI (selectivity index) listing for selected compounds.
# Tested on: human epithelial melanoma A375 cells
# Method Summary: Cell survival index (MTT + cell count) bioscreen, A375
# Format: cell-based
# Experimental Setup: SI = IC50 L6/IC50 A375
Keep it simple and answer with nothing but the number.

// solved cases for SI (selectivity index) follow
Cc1ccc(Cn2c(C(=O)NCc3ccc(Cl)cc3)cc(C(=O)c3ccccc3)c2C)cc1 [compound 9d] = 1.7
Cc1c(C(=O)c2ccccc2)cc(C(=O)NCc2cccc(Cl)c2)n1Cc1ccc(F)cc1 [compound 9c] = 2.7
Cc1c(C(=O)c2ccccc2)cc(C(=O)NCc2cccc(Cl)c2)n1Cc1ccc(Cl)cc1 [compound 9a] = 2.7
Cc1c(C(=O)c2ccccc2)cc(C(=O)NCc2cccc(Cl)c2)n1Cc1ccc(N)cc1 [compound 10a] = 5.6

(Q) Would you mind telling me what SI (selectivity index) value was observed for COc1ccc(Cn2c(C(=O)NCc3cccc(Cl)c3)cc(C(=O)c3ccccc3)c2C)cc1 [compound 9b] ?
(A) 1.7

(Q) Would you mind telling me what SI (selectivity index) value was observed for Cc1ccc(Cn2c(C(=O)NCc3cccc(Cl)c3)cc(C(O)c3ccccc3)c2C)cc1 (racemic) [(±)10b] ?
(A) 3.6

(Q) Would you mind telling me what SI (selectivity index) value was observed for COc1ccc(C(=O)c2cc(C(=O)NCc3cccc(Cl)c3)n(Cc3ccc(C)cc3)c2C)cc1 [compound 9i] ?
(A) 4.2

(Q) Would you mind telling me what SI (selectivity index) value was observed for COc1ccc(C2=N[C@H](c3ccc(Cl)cc3)[C@H](c3ccc(Cl)cc3)N2C(=O)N2CCNC(=O)C2)c(OC(C)C)c1 [nutlin-3a, reference compound] ?
(A) 1.2

(Q) Would you mind telling me what SI (selectivity index) value was observed for Cc1c(C(=O)c2ccccc2)cc(C(=O)NCc2ccc(Cl)cc2)n1Cc1ccc(Cl)cc1 [compound 9e] ?
(A) 1.6

====

# Test system: human epithelial melanoma A375 cells
# Method Summary: Cell survival index (MTT + cell count) bioscreen, A375
# Format: cell-based
# Experimental Setup: A-375; human melanoma cell line, 48 h of incubation, cell survival index, mean ± SEM (n = 30)
# Protocol: Cell growth inhibition activity of compounds 1, 9a–i, 10a,b, and the positive control nutlin-3a was evaluated following 48 h of incubation with increasing concentrations of the compounds (from 1.5 to 25 µM) in human cancer (A375 and HCT-116) and healthy (L6) cell lines. […] The evaluation of the “cell survival index” show a typical concentration-dependent sigmoid trend, achieving IC50 values in the low micromolar range (Figure S2). […]
Quantity: IC50

Cc1c(C(=O)c2ccccc2)cc(C(=O)NCc2cccc(Cl)c2)n1Cc1ccc(N)cc1 [compound 10a] = 10 µM

(Q) Would you mind telling me what IC50 value was observed for COc1ccc(Cn2c(C(=O)NCc3cccc(Cl)c3)cc(C(=O)c3ccccc3)c2C)cc1 [compound 9b] ?
(A) 24 µM

(Q) Would you mind telling me what IC50 value was observed for COc1ccc(C(=O)c2cc(C(=O)NCc3cccc(Cl)c3)n(Cc3ccc(C)cc3)c2C)cc1 [compound 9i] ?
(A) 16 µM

(Q) Would you mind telling me what IC50 value was observed for Cc1ccc(Cn2c(C(=O)NCc3cccc(Cl)c3)cc(C(=O)c3ccccc3)c2C)cc1 [compound 1] ?
(A) 20 µM
